Values compiled from ChEMBL document CHEMBL1127737.

The reader will find reported Relative initial slope values listed item by item below.
assay: Relative initial slope of the compound
Format: functional
measurement.kind: Relative initial slope

>>> value("CC(=O)O[C@H]1C(=O)[C@@]2(C)[C@H]([C@H](OC(=O)c3ccccc3)[C@]3(O)C[C@H](OC(=O)[C@H](O)[C@@H](NC(=O)c4ccc(N=[N+]=[N-])cc4)c4ccccc4)C(C)=C1C3(C)C)[C@]1(OC(C)=O)CO[C@@H]1C[C@@H]2O")
84
>>> value("CC(=O)O[C@H]1C(=O)[C@@]2(C)[C@H]([C@H](OC(=O)c3ccccc3)[C@]3(O)C[C@H](OC(=O)[C@H](O)[C@@H](NC(=O)c4ccccc4)c4ccccc4)C(C)=C1C3(C)C)[C@]1(OC(C)=O)CO[C@@H]1C[C@@H]2O [PACLITAXEL]")
100
>>> value("CC(=O)O[C@H]1C(=O)[C@@]2(C)[C@H]([C@H](OC(=O)c3ccccc3)[C@]3(O)C[C@H](OC(=O)[C@H](O)C(NC(=O)c4ccc(C(=O)c5ccccc5)cc4)c4ccccc4)C(C)=C1C3(C)C)[C@]1(OC(C)=O)CO[C@@H]1C[C@@H]2O (some centres undefined)")
15
>>> value("Nc1nc2c(ncn2[C@@H]2O[C@H](COP(=O)(O)OP(=O)(O)OP(=O)(O)O)[C@@H](O)[C@H]2O)c(=O)[nH]1 [GUANOSINE TRIPHOSPHATE]")
65
